- target_entity: CDK2E (Homo sapiens)
- assay_details: ADP Glo Kinase assay
- Assay type: biochemical
- assay_setup: 1 µM compound; read-out: % Residual enzymatic activity at 1 µM CDK2E
quantity_measured: remaining activity at 1 µM (%)
One number for each entry, in %.

Solved entries (count: 7):
[
  {
    "smiles_notation": "Cc1ccc(-n2cccc(C(=O)Nc3ccc(Oc4ncnc(N)c4F)c(F)c3)c2=O)cc1",
    "unit_label": "%",
    "experimental_value": 97
  },
  {
    "smiles_notation": "Nc1ncnc(Sc2ccc(NC(=O)c3cccn(-c4ccc(F)cc4)c3=O)cc2F)c1F",
    "unit_label": "%",
    "experimental_value": 93
  },
  {
    "smiles_notation": "Nc1ncnc(Oc2ccc(NC(=O)c3cccn(-c4ccc(F)cc4)c3=O)cc2F)c1Cl",
    "unit_label": "%",
    "experimental_value": 96
  },
  {
    "smiles_notation": "Nc1ncnc(Sc2ccc(NC(=O)c3cccn(-c4ccc(F)cc4)c3=O)cc2F)c1Cl",
    "unit_label": "%",
    "experimental_value": 101
  },
  {
    "smiles_notation": "Nc1ncnc(Oc2ccc(NC(=O)c3cccn(-c4ccc(F)cc4)c3=O)c(F)c2)c1F",
    "unit_label": "%",
    "experimental_value": 80
  },
  {
    "smiles_notation": "Nc1ncnc(Sc2ccc(NC(=O)c3cccn(-c4ccc(F)cc4)c3=O)c(F)c2)c1Cl",
    "unit_label": "%",
    "experimental_value": 88
  },
  {
    "smiles_notation": "Nc1ncnc(Oc2ccc(NC(=O)c3cccn(-c4ccc(F)cc4)c3=O)cc2)c1F",
    "unit_label": "%",
    "experimental_value": 89
  }
]

If you can, please state the reported remaining activity at 1 µM value of Nc1ncnc(Oc2ccc(NC(=O)c3cccn(-c4ccc(F)cc4)c3=O)c(Cl)c2)c1F .
90
